- Method Description: Pharmacokinetic test: gavage to rats, active metabolites in plasma and liver by LC-MS/MS
- Measurement Setup: rat, plasma, po, 0.0576 mmol/kg
Quantity: Tmax (min)
Output spec: scalar in min, unitless text.

Query (compound): CC[C@H]1[C@@H](O)[C@@H]2[C@H](CC[C@]3(C)[C@@H]([C@H](C)CCC(=O)O)CC[C@@H]23)[C@@]2(C)CC[C@@H](O)C[C@@H]12 ; field requested: Tmax
30

###

- Method Description: Pharmacokinetic test: gavage to rats, active metabolites in plasma and liver by LC-MS/MS
- Measurement Setup: rat, plasma, po, 0.0576 mmol/kg, T1/2, rats, gavage of obeticholic acid; OCA in plasma
Quantity: half-life

# query: half-life of entry CC[C@H]1[C@@H](O)[C@@H]2[C@H](CC[C@]3(C)[C@@H]([C@H](C)CCC(=O)O)CC[C@@H]23)[C@@]2(C)CC[C@@H](O)C[C@@H]12
4.35 h

###

- Method Description: Pharmacokinetic test: gavage to rats, active metabolites in plasma and liver by LC-MS/MS
- Measurement Setup: rat, liver, po, 0.0576 mmol/kg, T1/2, rats, gavage of obeticholic acid; OCA in liver
Quantity: half-life (min)
Could you give me the number in min? Just the number is fine.

Given the entry CC[C@H]1[C@@H](O)[C@@H]2[C@H](CC[C@]3(C)[C@@H]([C@H](C)CCC(=O)O)CC[C@@H]23)[C@@]2(C)CC[C@@H](O)C[C@@H]12 , report its measured half-life.
200

###

- Method Description: in vivo
- Measurement Setup: rat, po, 0.0576 mmol/kg
Quantity: AUC(0-inf) (ng·h/mL)
Give the value, in units of ng·h/mL, as a plain number.

Entry CC[C@H]1[C@@H](O)[C@@H]2[C@H](CC[C@]3(C)[C@@H]([C@H](C)CCC(=O)NCC(=O)O)CC[C@@H]23)[C@@]2(C)CC[C@@H](O)C[C@@H]12 has what AUC(0-inf)?
7460

###

- Method Description: in vivo
- Measurement Setup: rat, po, 0.0576 mmol/kg, MRT0-inf
Quantity: MRT inf
Give your result as the value with the unit written after it.

Item CC[C@H]1[C@@H](O)[C@@H]2[C@H](CC[C@]3(C)[C@@H]([C@H](C)CCC(=O)NCC(=O)O)CC[C@@H]23)[C@@]2(C)CC[C@@H](O)C[C@@H]12 has what recorded MRT inf?
6.1 h

###

- Method Description: Pharmacokinetic test: gavage to rats, active metabolites in plasma and liver by LC-MS/MS
- Measurement Setup: rat, plasma, po, 0.0576 mmol/kg
Quantity: AUC(0-inf) (ng·h/mL)
Give the value, in units of ng·h/mL, as a plain number.

What measured AUC(0-inf) goes with CC[C@H]1[C@@H](O)[C@@H]2[C@H](CC[C@]3(C)[C@@H]([C@H](C)CCC(=O)O)CC[C@@H]23)[C@@]2(C)CC[C@@H](O)C[C@@H]12 ?
50300

###

- Method Description: in vivo
- Measurement Setup: rat, po, 0.0576 mmol/kg, T1/2
Quantity: half-life

Would you kindly share the measured half-life for CC[C@H]1[C@@H](O)[C@@H]2[C@H](CC[C@]3(C)[C@@H]([C@H](C)CCC(=O)NCC(=O)O)CC[C@@H]23)[C@@]2(C)CC[C@@H](O)C[C@@H]12 [Compound 4] ?
4.79 h
